Biological target: recombinant soluble homotrimeric HA of A/Anhui/1/05 (H5N1) (Influenza A virus A/Anhui/1/2005(H5N1))
Assay: HA microarray, BCC supernatant
Conditions: remark: other sources report otherwise
readout.type: Trimeric HA Binding: RLU

>  <binder>
TCN-552 (5249_I23) (antibody, V domains shown) VH: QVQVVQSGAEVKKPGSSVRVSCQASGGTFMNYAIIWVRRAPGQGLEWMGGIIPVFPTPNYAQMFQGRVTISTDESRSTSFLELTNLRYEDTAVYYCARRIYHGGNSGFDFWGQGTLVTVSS VL: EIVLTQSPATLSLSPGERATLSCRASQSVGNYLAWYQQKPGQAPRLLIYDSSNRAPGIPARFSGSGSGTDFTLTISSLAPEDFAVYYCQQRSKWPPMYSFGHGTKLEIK

>  <obs.value>
4160 RLU

$$$$
>  <binder>
TCN-535 (5246_P19) (antibody, V domains shown) VH: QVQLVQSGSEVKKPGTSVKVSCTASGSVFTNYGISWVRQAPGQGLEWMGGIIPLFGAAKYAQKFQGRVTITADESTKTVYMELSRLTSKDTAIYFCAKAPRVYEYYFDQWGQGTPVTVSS VL: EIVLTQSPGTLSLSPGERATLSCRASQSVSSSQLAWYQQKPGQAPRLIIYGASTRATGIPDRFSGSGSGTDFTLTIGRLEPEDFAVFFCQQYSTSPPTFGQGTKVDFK

>  <obs.value>
6880 RLU

$$$$
>  <binder>
TCN-530 (5248_H10a) (antibody, V domains shown) VH: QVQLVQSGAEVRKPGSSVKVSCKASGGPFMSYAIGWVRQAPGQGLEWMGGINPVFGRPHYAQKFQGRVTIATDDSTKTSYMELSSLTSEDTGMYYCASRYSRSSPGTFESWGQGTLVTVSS VL: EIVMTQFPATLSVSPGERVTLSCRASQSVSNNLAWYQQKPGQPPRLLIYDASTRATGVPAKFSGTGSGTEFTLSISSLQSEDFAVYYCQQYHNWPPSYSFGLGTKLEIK

>  <obs.value>
11900 RLU

$$$$
>  <binder>
TCN-521 (3280_D18) (antibody, V domains shown) VH: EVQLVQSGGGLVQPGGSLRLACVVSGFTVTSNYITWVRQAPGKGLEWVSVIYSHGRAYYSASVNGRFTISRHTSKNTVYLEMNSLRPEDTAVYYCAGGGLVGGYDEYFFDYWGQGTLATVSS VL: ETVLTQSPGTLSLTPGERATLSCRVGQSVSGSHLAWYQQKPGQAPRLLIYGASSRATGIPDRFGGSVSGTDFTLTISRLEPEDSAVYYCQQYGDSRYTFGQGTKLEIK

>  <obs.value>
487 RLU

$$$$
>  <binder>
TCN-551 (5243_D01) (antibody, V domains shown) VH: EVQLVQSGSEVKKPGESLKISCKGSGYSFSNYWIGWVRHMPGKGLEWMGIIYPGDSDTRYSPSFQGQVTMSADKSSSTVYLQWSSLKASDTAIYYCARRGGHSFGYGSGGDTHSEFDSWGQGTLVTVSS VL: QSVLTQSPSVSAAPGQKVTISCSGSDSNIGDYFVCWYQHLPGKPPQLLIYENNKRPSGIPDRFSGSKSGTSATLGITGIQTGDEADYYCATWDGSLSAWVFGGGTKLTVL

>  <obs.value>
4190 RLU

$$$$

Data origin, for the record: patent US20150086555A1
